Origin of the recorded values: patent US8987294B2

target-or-system: interaction of leupaxin with α4-integrin (Homo sapiens)
Construct: Biotinylated α4-integrin cytoplasmic tail was coated to the plates; 6xHis (N); biotin acceptor peptide […]
Sequence (O60711 whole entry): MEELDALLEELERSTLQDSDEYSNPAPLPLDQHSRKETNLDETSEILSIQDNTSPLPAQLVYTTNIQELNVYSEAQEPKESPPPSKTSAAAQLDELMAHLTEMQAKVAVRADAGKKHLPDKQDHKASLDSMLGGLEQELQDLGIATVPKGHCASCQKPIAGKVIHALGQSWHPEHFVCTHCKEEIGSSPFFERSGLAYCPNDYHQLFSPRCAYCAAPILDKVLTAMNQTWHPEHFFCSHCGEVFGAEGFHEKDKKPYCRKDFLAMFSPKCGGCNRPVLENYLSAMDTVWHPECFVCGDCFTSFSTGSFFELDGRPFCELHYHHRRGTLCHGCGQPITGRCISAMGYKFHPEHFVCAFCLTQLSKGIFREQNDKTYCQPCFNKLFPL
test-description: ELISA, leupaxin binding to immobilized α4 tail
condition-description: 10 μg/ml leupaxin; read-out: IC50, inhibition of leupaxin binding to α4-integrin
Description: Thermo Electron High Binding 96 or 384 well plates were coated with 1 μg/ml neutravidin (Pierce) in 0.05M NaHCO3 pH 9.5 over night at 4° C. After blocking with 1% heat inactivated BSA in PBS for 1 hour at room temperature, plates were incubated with 1 μg/ml of recombinant αIIb-tail or α4-tail FAT or Git-1 in 1% BSA in PBS for one hour at room temperature. […] Inhibition of the α4 leupaxin interaction was measured using the above described ELISA assay. […]
experimental-endpoint: IC50 (µM)
Lab book: enter the figure in µM, no units written.

# IC50 of COc1cc(C2CC(=O)Nc3c2cc(Br)c2ccccc32)cc(OC)c1OC (stereo not shown) = 18
